Catalogue of Percent Effect values
assay: In vitro enzyme assay to detect hydrolysis of chlorophenol red-beta-D-[…] directly proportional to the number of Toxoplasma stably expressing beta-galactosidase; assay type: functional, organism-based, Toxoplasma gondii; set-up: scale not given: in the data most compounds retested in dose-response had high values; details: 50 µM
About 440 (0.52%) of roughly 85,000 compounds showed an effect of 50% or more. Shown is part of a subset that was picked to be rich in strong results.
Please reply with the bare figure in % and do not write the unit itself.

Solved cases below.
| Compound | Obs value |
| --- | --- |
| CN(C)C(=O)C1CCN(Cc2ccccc2F)CC1 | -0.8921 |
| Nc1ccnn1-c1ccccn1 | -4.085 |
| Cc1cc(C(=O)Nc2ccnc(C)c2Cl)cc(O)n1 | 12.01 |
| CN(C)c1cc(CNC(=O)c2nccnc2N)ccn1 | 58.76 |
| CCC(=O)N(c1ccc(Cl)cc1)C1C=CS(=O)(=O)C1 (stereo not drawn) | -0.8656 |

Incoming: Entry under review: Cc1ccsc1CN(C)C(=O)C(CN)c1ccccc1 (stereo not drawn) . Reported Percent Effect?
Outgoing: -6.582

Incoming: Entry under review: Cc1cnc(NCC(O)CN2CCCCC2)nc1 (stereo not drawn) . Reported Percent Effect?
Outgoing: -5.965

Incoming: Entry under review: `COc1ccc(CN)c(F)c1` . Reported Percent Effect?
Outgoing: 0.131

Incoming: Entry under review: COCCNC(=O)c1cn(CC2CCCNC2)nn1 (stereo not drawn) . Reported Percent Effect?
Outgoing: -4.648

Incoming: Entry under review: `Cc1cc(NC(=O)COC(=O)c2cccc(F)c2)[nH]n1` . Reported Percent Effect?
Outgoing: 3.257
